The measured values listed here are drawn from paper PMC6792352.

Test system: GH3-TRE-Luc cell line
protocol.conditions: read-out: AC50 (uM) modified / 1000; Tox21_110001=Tox21_202790; viability, 1 nM T3 present, 24 h
readout.label: CC50

Task: # query: CC50 of entry CC1=CC(=C(c2ccc(N)cc2)c2ccc(N)cc2)C=CC1=N [C.I. Basic Violet 14]
Output: 5.54 µM

###

assay.comment: in vitro
protocol.conditions: rat, gh3-tre-luc cells, AC50 (uM) modified / 1000
readout.label: CC50 at 24 h

Solved entries (count: 5):
# compound, CC50 at 24 h
records = [
    ("Cc1c[nH]c2ccccc12 [3-Methylindole]", "> 50 µM"),
    ("CC1=CCC2C(C1)C2(C)C (stereo not shown) [3-Carene]", "> 90 µM"),
    ("O=C(O)c1cc(N=Nc2ccc([N+](=O)[O-])cc2)ccc1O [Alizarin Yellow R]", "58 µM"),
    ("COC(=O)c1sccc1S(=O)(=O)NC(=O)Nc1nc(C)nc(OC)n1 [Thifensulfuron-methyl]", "> 90 µM"),
    ("COc1cc(C(=S)N2CCOCC2)ccc1O [Vanitiolide]", "> 50 µM"),
]

Task: # query: CC50 at 24 h of entry N#CCc1ccc(Cl)cc1Cl [(2,4-Dichlorophenyl)acetonitrile]
Output: > 90 µM

Task: # query: CC50 at 24 h of entry CNC(=NCCSCc1csc(N=C(N)N)n1)NC#N [Tiotidine]
Output: > 50 µM

Task: # query: CC50 at 24 h of entry CCCCCCOC(=O)c1ccccc1C(=O)OCCCCCC [Dihexyl phthalate]
Output: > 90 µM

Task: # query: CC50 at 24 h of entry CCCCCCCCCCC [Undecane]
Output: > 90 µM

Task: # query: CC50 at 24 h of entry O=C(CCCN1CCC(O)(c2ccc(Br)cc2)CC1)c1ccc(F)cc1 [Bromperidol]
Output: > 20 µM
